Data origin, for the record: patent US7365053B2

# System: Staphylococcus aureus SA1199A
# ASSAY COMMENT: Broth micro-dilution MIC
# Assay type: cell-based
For each entry below, report its MIC value.
Provide the reading as a plain figure in µg/mL.

Param item = CNC(CC(C)C)C(=O)NC1C(=O)NC(CC(N)=O)C(=O)NC2C(=O)NC3C(=O)NC(C(=O)NC(C(=O)O)c4cc(O)cc(O)c4-c4cc3ccc4O)C(OC3CC(C)(N)C(O)C(C)O3)c3ccc(c(Cl)c3)Oc3cc2cc(c3OC2OC(CO)C(O)C(O)C2OC2CC(C)(NC(=O)c3ccc(-c4ccccc4)cc3)C(O)C(C)O2)Oc2ccc(cc2Cl)C1O (stereo not shown) [Example 1] ; retrieve measured MIC.
0.125

I am curious: what MIC value has been reported for CCCCCCCC(=O)N(C)C(CC(C)C)C(=O)NC1C(=O)NC(CC(N)=O)C(=O)NC2C(=O)NC3C(=O)NC(C(=O)NC(C(=O)O)c4cc(O)cc(O)c4-c4cc3ccc4O)C(OC3CC(C)(N)C(O)C(C)O3)c3ccc(c(Cl)c3)Oc3cc2cc(c3OC2OC(CO)C(O)C(O)C2OC2CC(C)(N)C(O)C(C)O2)Oc2ccc(cc2Cl)C1O (stereo not shown) [Example 10, 1′-N-octanoyl-A82846B] ?
0.125

Requested field: MIC. Item: CNC(CC(C)C)C(=O)NC1C(=O)NC(CC(N)=O)C(=O)NC2C(=O)NC3C(=O)NC(C(=O)NC(C(=O)O)c4cc(O)cc(O)c4-c4cc3ccc4O)C(OC3CC(C)(NC(=O)c4ccc(-c5ccccc5)cc4)C(O)C(C)O3)c3ccc(c(Cl)c3)Oc3cc2cc(c3OC2OC(CO)C(O)C(O)C2OC2CC(C)(N)C(O)C(C)O2)Oc2ccc(cc2Cl)C1O (stereo not shown) [Example 2]
1

Which MIC reading was recorded for the compound CCCCCCCC(=O)NC1(C)CC(OC2C(Oc3c4cc5cc3Oc3ccc(cc3Cl)C(OC3CC(C)(N)C(O)C(C)O3)C3NC(=O)C(NC(=O)C5NC(=O)C(CC(N)=O)NC(=O)C(NC(=O)C(CC(C)C)NC)C(O)c5ccc(c(Cl)c5)O4)c4ccc(O)c(c4)-c4c(O)cc(O)cc4C(C(=O)O)NC3=O)OC(CO)C(O)C2O)OC(C)C1O (stereo not shown) [Example 8, 4′-N-octanoyl-A82846B] ?
0.25

Sample CNC(CC(C)C)C(=O)NC1C(=O)NC(CC(N)=O)C(=O)NC2C(=O)NC3C(=O)NC(C(=O)NC(C(=O)O)c4cc(O)cc(O)c4-c4cc3ccc4O)C(OC3CC(C)(N)C(O)C(C)O3)c3ccc(c(Cl)c3)Oc3cc2cc(c3OC2OC(CO)C(O)C(O)C2OC2CC(C)(NC(=O)c3ccc(-c4ccc(Cl)cc4)cc3)C(O)C(C)O2)Oc2ccc(cc2Cl)C1O (stereo not shown) [Example 4] — what was its MIC?
0.25

Which MIC reading was recorded for the compound CC(C)CC(C(=O)NC1C(=O)NC(CC(N)=O)C(=O)NC2C(=O)NC3C(=O)NC(C(=O)NC(C(=O)O)c4cc(O)cc(O)c4-c4cc3ccc4O)C(OC3CC(C)(N)C(O)C(C)O3)c3ccc(c(Cl)c3)Oc3cc2cc(c3OC2OC(CO)C(O)C(O)C2OC2CC(C)(N)C(O)C(C)O2)Oc2ccc(cc2Cl)C1O)N(C)C(=O)c1ccc(-c2ccccc2)cc1 (stereo not shown) [Example 3] ?
1

So what's the measured MIC for this one? CCCCCCCCOc1ccc(C(=O)NC2(C)CC(OC3C(Oc4c5cc6cc4Oc4ccc(cc4Cl)C(OC4CC(C)(N)C(O)C(C)O4)C4NC(=O)C(NC(=O)C6NC(=O)C(CC(N)=O)NC(=O)C(NC(=O)C(CC(C)C)NC)C(O)c6ccc(c(Cl)c6)O5)c5ccc(O)c(c5)-c5c(O)cc(O)cc5C(C(=O)O)NC4=O)OC(CO)C(O)C3O)OC(C)C2O)cc1 (stereo not shown) [Example 6]
0.25

Given the entry CCCCCCCC(=O)NC1(C)CC(OC2c3ccc(c(Cl)c3)Oc3cc4cc(c3OC3OC(CO)C(O)C(O)C3OC3CC(C)(N)C(O)C(C)O3)Oc3ccc(cc3Cl)C(O)C(NC(=O)C(CC(C)C)NC)C(=O)NC(CC(N)=O)C(=O)NC4C(=O)NC3C(=O)NC2C(=O)NC(C(=O)O)c2cc(O)cc(O)c2-c2cc3ccc2O)OC(C)C1O (stereo not shown) [Example 9, 6′-N-octanoyl-A82846B] , report its measured MIC.
0.125
